Target: T1, cynomolgus monkey IL-33 (cys mut) (cynomolgus monkey)
T1 chain: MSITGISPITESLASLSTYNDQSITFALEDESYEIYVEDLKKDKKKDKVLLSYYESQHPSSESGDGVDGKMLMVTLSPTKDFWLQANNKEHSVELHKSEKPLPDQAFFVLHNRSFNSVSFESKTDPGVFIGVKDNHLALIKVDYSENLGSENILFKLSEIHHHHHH
Assay: cell-based or functional assay
Form field: IC50, HEK293 ST2 NFkB cyno IL-33 (one value per entry).
State the answer as a number, implicitly in nM.

1. IL33-170 (antibody, human IgG1, kappa, V domains shown) VH: EVQLVESGGGLVQPGGSLRLSCAASGFTFSSYWMYWVRQAPGKGLEWVAAITPNGGEDYYPESVKGRFTISRDNAKNSLYLQMNSLRAEDTAVYYCARGHYYYTSYSLGYWGQGTLVTVSS VL: DIQMTQSPSSLSASVGDRVTITCKASQNINKHLDWYQQKPGKAPKLLIYFTNNLQTGVPSRFSGSGSGTDFTLTISSLQPEDFATYYCFQYNNGWTFGGGTKVEIKR = 0.218

Input line: Given the entry IL33-155 (antibody, human IgG1, kappa, V domains shown) VH: EVQLVESGGGLVQPGGSLRLSCAASGFTFSSYWMYWVRQAPGKGLEWVAAITPNGGEDYYPDSVKGRFTISRDNAKNSLYLQMNSLRAEDTAVYYCARGHYYYTSYSLGYWGQGTLVTVSS VL: DIQMTQSPSSLSASVGDRVTITCKASQNINKHLDWYQQKPGKAPKLLIYFTNNLQTGVPSRFSGSGSGTDFTLTISSLQPEDFATYYCFQYNQGWTFGGGTKVEIKR , report its measured IC50, HEK293 ST2 NFkB cyno IL-33.
Output line: 0.239
